# System: Haematobia irritans
# Run description: whole plant or invertebrate
# Conditions used: 5 μg/cm^2; timepoint 4 hrs
Measurement type: Contact SP Horn Fly PCT Mortality (%)
Answers without a unit are incomplete; give the number and then its unit.

I would be grateful if you could share the reported Contact SP Horn Fly PCT Mortality (%) for CCC(C)CNC(=O)c1ccc(COc2cccc(OC(F)(F)F)c2)cn1 (centres unmarked) .
70%

Next: `CCc1cccc(OCc2ccc(C(=O)NCC3CC3)nc2)c1`
100%

Next: `CC(C)NC(=O)c1ccc(COc2cccc(OC(F)(F)F)c2)cn1`
70%

Next: `COCCCNC(=O)c1ccc(COc2ccc(OC(F)(F)F)cc2)cn1`
0%

Next: `O=C(NC1CCC1)c1ccc(COc2cc(F)cc(Br)c2)cn1`
0%

Next: `CC(C)CNC(=O)c1ccc(COCc2cccc(OC(F)(F)F)c2)cn1`
100%

Next: `C=C(C)CNC(=O)c1ccc(COc2ccc(OC(F)(F)F)cc2)cn1`
50%

Next: CC(C)CNC(=O)c1ccc(C(C)COc2cccc(OC(F)(F)F)c2)cn1 (racemic)
80%

Next: `O=C(NCC1CC1)c1ccc(CCOc2cccc(C(F)(F)F)c2)cn1`
100%

Next: `O=C(NCC1CC1)c1ccc(COc2cc(F)cc(Br)c2)cn1`
80%

Next: `O=C(NCC1CC1)c1ccc(COc2ccc(C(F)(F)F)cc2)cn1`
50%

----------
Give Contact SP Horn Fly PCT Mortality (%) for every item shown.
# System: Haematobia irritans
# Run description: whole plant or invertebrate
# Conditions used: 5 μg/cm^2; timepoint 24 hrs
Quick note: give the figure in %, leave out the unit.

I would be grateful if you could share the reported Contact SP Horn Fly PCT Mortality (%) for C=C(C)CNC(=O)c1ccc(COc2ccc(OC(F)(F)F)cc2)cn1 [Compound 38] .
80

Next: O=C(NCC1CC1)c1ccc(CCOc2ccc(C(F)(F)F)cc2)cn1 [Compound 207]
80

Next: O=C(NCC1CC1)c1ccc(COc2cccc(OC(F)(F)F)c2)cn1 [Compound 52]
80

Next: CCC(C)CNC(=O)c1ccc(COc2cccc(OC(F)(F)F)c2)cn1 (stereo not shown) [Compound 57]
80

Next: CCCNC(=O)c1ccc(COc2ccc(OC(F)(F)F)cc2)cn1 [Compound 34]
80

Next: O=C(NCCc1ccccn1)c1ccc(COc2cc(F)cc(Br)c2)cn1 [Compound 121]
80

Next: CC(C)NC(=O)c1ccc(COc2cccc(OC(F)(F)F)c2)cn1 [Compound 50]
80

----------
Give Contact SP Rhicicep PCT Mortality (%) for every item shown.
# Tested on: Rhipicephalus sanguineus (Brown Dog Tick)
# Run description: whole plant or invertebrate
# Conditions used: 200 ppm; timepoint 24 hrs
Quick note: give the figure in %, leave out the unit.

I would be grateful if you could share the reported Contact SP Rhicicep PCT Mortality (%) for `O=C(NC1CCC1)c1ccc(COc2cc(F)cc(Br)c2)cn1` .
80

Next: `COc1cccc(OCc2ccc(C(=O)NCC(C)C)nc2)c1`
80

Next: `O=C(NCc1ccncc1)c1ccc(COc2cc(F)cc(Br)c2)cn1`
60

Next: `CCCNC(=O)c1ccc(COc2cc(F)cc(Br)c2)cn1`
70

Next: `CCCNC(=O)c1ccc(COc2cccc(-c3cccc(F)c3)c2)cn1`
90

Next: `CCNC(=O)c1ccc(COc2ccc(OC(F)(F)F)cc2)cn1`
90

Next: `CC(C)CNC(=O)c1ccc(COc2ccc(F)c(F)c2)cn1`
100

Next: `C=C(C)CNC(=O)c1ccc(COc2cccc(-c3cccc(F)c3)c2)cn1`
100

Next: CCC(C)CNC(=O)c1ccc(COc2cccc(-c3cccc(F)c3)c2)cn1 (centres unmarked)
90

Next: `CC(C)CNC(=O)c1ccc(COCc2ccc(Cl)c(OC(F)(F)F)c2)cn1`
100

Next: `COCCCNC(=O)c1ccc(COc2cccc(-c3cccc(F)c3)c2)cn1`
80
